- Test Target: κ opioid receptor (Homo sapiens, UniProt P41145)
- Sequence (P41145 whole entry): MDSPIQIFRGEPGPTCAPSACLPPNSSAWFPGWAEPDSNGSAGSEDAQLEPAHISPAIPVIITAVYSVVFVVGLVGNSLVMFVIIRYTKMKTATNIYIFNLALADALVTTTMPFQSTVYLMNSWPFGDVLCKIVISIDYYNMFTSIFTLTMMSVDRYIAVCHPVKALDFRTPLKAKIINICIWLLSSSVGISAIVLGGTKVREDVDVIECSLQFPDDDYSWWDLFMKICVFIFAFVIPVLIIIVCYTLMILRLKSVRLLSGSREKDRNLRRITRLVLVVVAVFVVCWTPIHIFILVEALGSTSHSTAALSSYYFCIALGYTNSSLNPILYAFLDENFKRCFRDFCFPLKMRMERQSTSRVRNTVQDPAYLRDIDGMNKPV
- Assay Explanation: κ-opioid receptor radioligand dose displacement binding assay
- Set-up: expressed in transfected cells; host or cells: HEK-293
- Condition Details: [3H]-U69,593 displacement, HEK-293 membranes; read-out: Ki (nM) Opioid Receptor κ
- Protocol: Membranes from recombinant HEK-293 cells expressing the human κ opioid receptor (κ) (cloned in house) were prepared by lysing cells in ice cold hypotonic buffer (2.5 mM MgCl2, 50 mM HEPES, pH 7.4) (10 mL/10 cm dish) followed by homogenization with a tissue grinder/Teflon pestle. […] Protein concentrations were determined using the BioRad protein assay reagent with bovine serum albumen as standard. […]
Lab note - cut at 200 nM for Ki: Yes if strictly below, No if not.

{"columns": ["Smiles Data", "Test Target", "Category Label"],
 "data": [
  ["CC(C)CN1CC[C@@]2(CCCC(N)=O)c3cc(O)ccc3C[C@@H]1[C@@H]2C", "κ opioid receptor (Homo sapiens, UniProt P41145)", "Yes"],
  ["COc1ccc2c(c1)[C@@]1(CCCCOCc3ccccc3)CCN(CC3CC3)C(C2)[C@@H]1C", "κ opioid receptor (Homo sapiens, UniProt P41145)", "Yes"],
  ["C[C@H](NC(=O)C[C@@]12CCN(CC3CC3)C(Cc3ccc(O)cc31)[C@@H]2C)C(N)=O", "κ opioid receptor (Homo sapiens, UniProt P41145)", "Yes"],
  ["COc1ccc2c(c1)[C@@]1(CCCC(=O)O)CCN(CC3CC3)C(C2)[C@@H]1C", "κ opioid receptor (Homo sapiens, UniProt P41145)", "Yes"],
  ["COc1ccc2c(c1)[C@]1(CCOc3ccc(C(=O)O)cc3)CCN(CC3CC3)[C@H](C2)[C@@H]1C", "κ opioid receptor (Homo sapiens, UniProt P41145)", "No"],
  ["COc1ccc2c(c1)[C@]1(CCNC(=O)c3ccc(C(=O)O)cc3)CCN(CC3CC3)[C@H](C2)[C@@H]1C", "κ opioid receptor (Homo sapiens, UniProt P41145)", "No"],
  ["COc1ccc2c(c1)[C@@]1(CC(=O)N[C@@H](C)C(N)=O)CCN(CC3CC3)C(C2)[C@@H]1C", "κ opioid receptor (Homo sapiens, UniProt P41145)", "Yes"]
]}

* * *

- Test Target: UniProt P35372
- Sequence (P35372 whole entry, species assumed): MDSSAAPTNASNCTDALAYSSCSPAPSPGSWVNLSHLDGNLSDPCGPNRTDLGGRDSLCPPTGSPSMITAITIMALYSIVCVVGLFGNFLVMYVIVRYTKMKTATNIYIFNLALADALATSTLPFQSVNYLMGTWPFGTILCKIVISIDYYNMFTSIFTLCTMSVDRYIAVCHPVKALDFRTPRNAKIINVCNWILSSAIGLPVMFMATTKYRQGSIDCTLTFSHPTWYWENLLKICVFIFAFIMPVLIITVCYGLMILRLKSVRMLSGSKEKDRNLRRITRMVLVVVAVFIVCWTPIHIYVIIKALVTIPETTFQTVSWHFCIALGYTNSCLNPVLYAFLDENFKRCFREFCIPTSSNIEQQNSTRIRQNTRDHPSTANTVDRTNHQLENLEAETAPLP
- Assay Explanation: μ-opioid receptor [35S]GTPγS functional assay
- Format: biochemical
- Parameters: purchased Perkin Elmer, Shelton, Conn
- Condition Details: relative to the effect elicited by DAMGO
Each entry below lists one item and its recorded Emax value.
Measurement Type: Emax (%)

{"columns": ["Smiles Data", "Test Target", "Measurement Type", "Readout Number"],
 "data": [
  ["C[C@H]1[C@H]2Cc3ccc(O)cc3[C@]1(CCOc1ccc(C(=O)O)cc1)CCN2CC1CC1", "UniProt P35372", "Emax", 86.3],
  ["COC(=O)CCC[C@]12CCN(CC3CC3)[C@H](Cc3ccc(O)cc31)[C@@H]2C", "UniProt P35372", "Emax", 18],
  ["C[C@H]1[C@H]2Cc3ccc(O)cc3[C@]1(CCCC(N)=O)CCN2CC1CC1", "UniProt P35372", "Emax", 19],
  ["COc1ccc2c(c1)[C@]1(CCNC(=O)c3ccc(C(=O)O)cc3)CCN(CC3CC3)[C@H](C2)[C@@H]1C", "UniProt P35372", "Emax", 104]
]}
